All figures here come from ChEMBL document CHEMBL1137636.

System: Haemophilus influenzae
assay_name: Antibacterial activity against genetically beta-lactamase-negative ampicillin-resistant Haemophilus influenzae type b with an amino acid substitution in variable mutated locus Asn-526 or Arg-517 of ftsI gene assessed as resistance rate by broth microdilution method
Type: functional
Reported values of Activity for individual entries
Just the number please, in %, no unit attached.

# compound, Activity [%]
data = [
    ("CC[C@H]1OC(=O)[C@H](C)C(=O)[C@H](C)[C@@H](O[C@@H]2O[C@H](C)C[C@H](N(C)C)[C@H]2O)[C@](C)(OC)C[C@@H](C)C(=O)[C@H](C)[C@H]2N(CCCCn3cnc(-c4cccnc4)c3)C(=O)O[C@]12C", 0),
    ("C[C@@H](O)[C@H]1C(=O)N2C(C(=O)O)=C(S[C@@H]3CN[C@H](C(=O)N(C)C)C3)[C@H](C)[C@H]12", 0),
]

// next item, Activity requested
State measured Activity of the compound CC1(C)S[C@@H]2[C@H](NC(=O)[C@H](N)c3ccccc3)C(=O)N2[C@H]1C(=O)O with Haemophilus influenzae.
8.1

---

System: Haemophilus influenzae
assay_name: Antibacterial activity against genetically beta-lactamase-negative ampicillin-resistant Haemophilus influenzae type b with an amino acid substitution in highly mutated locus Ser-385 of ftsI gene assessed as resistance rate by broth microdilution method
Assay type: functional
quantity_kind: Activity
Answers without a unit are incomplete; give the number and then its unit.

# compound, Activity
records = [
    ("C[C@@H](O)[C@H]1C(=O)N2C(C(=O)O)=C(S[C@@H]3CN[C@H](C(=O)N(C)C)C3)[C@H](C)[C@H]12", "9.5%"),
    ("COCC1=C(C(=O)O)N2C(=O)[C@@H](NC(=O)/C(=N\\OC)c3csc(N)n3)[C@H]2SC1", "91.9%"),
]

// next item, Activity requested
Give a short answer stating reported Activity for CC[C@H]1OC(=O)[C@H](C)[C@@H](O[C@H]2C[C@@](C)(OC)[C@@H](O)[C@H](C)O2)[C@H](C)[C@@H](O[C@@H]2O[C@H](C)C[C@H](N(C)C)[C@H]2O)[C@](C)(OC)C[C@@H](C)C(=O)[C@H](C)[C@@H](O)[C@]1(C)O .
0%

---

Reported values of Activity for individual entries
Tested on: Haemophilus influenzae
assay_name: Antibacterial activity against genetically beta-lactamase-negative ampicillin-resistant Haemophilus influenzae type b with an amino acid substitution in highly mutated locus Ser-385 of ftsI gene assessed as resistance rate by broth microdilution method
Assay type: functional

# compound, subject_of_test, result
measured = [
    ("CC[C@H]1OC(=O)[C@H](C)C(=O)[C@H](C)[C@@H](O[C@@H]2O[C@H](C)C[C@H](N(C)C)[C@H]2O)[C@](C)(OC)C[C@@H](C)C(=O)[C@H](C)[C@H]2N(CCCCn3cnc(-c4cccnc4)c3)C(=O)O[C@]12C", "Haemophilus influenzae", "0%"),
    ("CO/N=C(\\C(=O)N[C@@H]1C(=O)N2C(C(=O)O)=C(COC(N)=O)CS[C@H]12)c1ccco1", "Haemophilus influenzae", "94.6%"),
]

// next item, Activity requested
Give a short answer stating reported Activity for CC1(C)S[C@@H]2[C@H](NC(=O)[C@H](N)c3ccccc3)C(=O)N2[C@H]1C(=O)O .
71.6%

---

Reported values of log10(MIC50) for individual entries
System: Haemophilus influenzae
assay_name: Antibacterial activity against genetically beta-lactamase-negative ampicillin-susceptible Haemophilus influenzae type b without amino acid substitutions in ftsI gene and bla gene by broth microdilution method
Assay type: functional
Give log10 of MIC50, with MIC50 taken in µg/mL.

Look over these answered cases.
# compound, recorded_number
records = [
    ("CC[C@H]1OC(=O)[C@H](C)C(=O)[C@H](C)[C@@H](O[C@@H]2O[C@H](C)C[C@H](N(C)C)[C@H]2O)[C@](C)(OC)C[C@@H](C)C(=O)[C@H](C)[C@H]2N(CCCCn3cnc(-c4cccnc4)c3)C(=O)O[C@]12C", 0.30),
    ("COCC1=C(C(=O)O)N2C(=O)[C@@H](NC(=O)/C(=N\\OC)c3csc(N)n3)[C@H]2SC1", -0.92),
]

Give a short answer stating reported log10(MIC50) for CO/N=C(\C(=O)N[C@@H]1C(=O)N2C(C(=O)O)=C(COC(N)=O)CS[C@H]12)c1ccco1 .
0.00

Give a short answer stating reported log10(MIC50) for CC[C@H]1OC(=O)[C@H](C)[C@@H](O[C@H]2C[C@@](C)(OC)[C@@H](O)[C@H](C)O2)[C@H](C)[C@@H](O[C@@H]2O[C@H](C)C[C@H](N(C)C)[C@H]2O)[C@](C)(OC)C[C@@H](C)C(=O)[C@H](C)[C@@H](O)[C@]1(C)O .
0.90

Give a short answer stating reported log10(MIC50) for CC1(C)S[C@@H]2[C@H](NC(=O)[C@H](N)c3ccccc3)C(=O)N2[C@H]1C(=O)O .
-0.30

Give a short answer stating reported log10(MIC50) for CC[C@H]1OC(=O)[C@H](C)[C@@H](O[C@H]2C[C@@](C)(OC)[C@@H](O)[C@H](C)O2)[C@H](C)[C@@H](O[C@@H]2O[C@H](C)C[C@H](N(C)C)[C@H]2O)[C@](C)(O)C[C@@H](C)CN(C)[C@H](C)[C@@H](O)[C@]1(C)O .
0.30

---

Tested on: Haemophilus influenzae
assay_name: Antibacterial activity against genetically beta-lactamase-negative ampicillin-resistant Haemophilus influenzae type b with an amino acid substitution in variable mutated locus Asn-526 or Arg-517 of ftsI gene assessed as resistance rate by broth microdilution method
Type: functional
quantity_kind: Activity (%)
Just the number please, in %, no unit attached.

Look over these answered cases.
# compound, unit_descriptor, recorded_number
data = [
    ("C[C@H]1COc2c(N3CCN(C)CC3)c(F)cc3c(=O)c(C(=O)O)cn1c23.C[C@H]1COc2c(N3CCN(C)CC3)c(F)cc3c(=O)c(C(=O)O)cn1c23.O [LEVOFLOXACIN]", "%", 0),
    ("CC[C@H]1OC(=O)[C@H](C)[C@@H](O[C@H]2C[C@@](C)(OC)[C@@H](O)[C@H](C)O2)[C@H](C)[C@@H](O[C@@H]2O[C@H](C)C[C@H](N(C)C)[C@H]2O)[C@](C)(OC)C[C@@H](C)C(=O)[C@H](C)[C@@H](O)[C@]1(C)O [CLARITHROMYCIN]", "%", 2),
    ("COCC1=C(C(=O)O)N2C(=O)[C@@H](NC(=O)/C(=N\\OC)c3csc(N)n3)[C@H]2SC1 [CEFPODOXIME]", "%", 9.2),
]

Give a short answer stating reported Activity for CC[C@H]1OC(=O)[C@H](C)[C@@H](O[C@H]2C[C@@](C)(OC)[C@@H](O)[C@H](C)O2)[C@H](C)[C@@H](O[C@@H]2O[C@H](C)C[C@H](N(C)C)[C@H]2O)[C@](C)(O)C[C@@H](C)CN(C)[C@H](C)[C@@H](O)[C@]1(C)O [AZITHROMYCIN] .
4.1

Give a short answer stating reported Activity for CO/N=C(\C(=O)N[C@@H]1C(=O)N2C(C(=O)O)=C(COC(N)=O)CS[C@H]12)c1ccco1 [CEFUROXIME] .
21.4

---

Reported values of Activity for individual entries
Tested on: Haemophilus influenzae
assay_name: Antibacterial activity against genetically beta-lactamase-negative ampicillin-resistant Haemophilus influenzae type b with an amino acid substitution in highly mutated locus Ser-385 of ftsI gene assessed as resistance rate by broth microdilution method
Type: functional
Just the number please, in %, no unit attached.

# compound, unit_descriptor, Activity
rows = [
    ("CC[C@H]1OC(=O)[C@H](C)[C@@H](O[C@H]2C[C@@](C)(OC)[C@@H](O)[C@H](C)O2)[C@H](C)[C@@H](O[C@@H]2O[C@H](C)C[C@H](N(C)C)[C@H]2O)[C@](C)(O)C[C@@H](C)CN(C)[C@H](C)[C@@H](O)[C@]1(C)O", "%", 2.7),
]

State measured Activity of the compound C[C@H]1COc2c(N3CCN(C)CC3)c(F)cc3c(=O)c(C(=O)O)cn1c23.C[C@H]1COc2c(N3CCN(C)CC3)c(F)cc3c(=O)c(C(=O)O)cn1c23.O with Haemophilus influenzae.
0

---

Test system: Haemophilus influenzae
assay_name: Antibacterial activity against genetically beta-lactamase-negative ampicillin-resistant Haemophilus influenzae type b with an amino acid substitution in variable mutated locus Asn-526 or Arg-517 of ftsI gene by broth microdilution method
Format: functional
quantity_kind: MIC90 (µg/mL)
Just the number please, in µg/mL, no unit attached.

Look over these answered cases.
# compound, subject_of_test, recorded_number
rows = [
    ("CC1(C)S[C@@H]2[C@H](NC(=O)[C@H](N)c3ccccc3)C(=O)N2[C@H]1C(=O)O [AMPICILLIN]", "Haemophilus influenzae", 2),
    ("COCC1=C(C(=O)O)N2C(=O)[C@@H](NC(=O)/C(=N\\OC)c3csc(N)n3)[C@H]2SC1 [CEFPODOXIME]", "Haemophilus influenzae", 2),
    ("CC[C@H]1OC(=O)[C@H](C)[C@@H](O[C@H]2C[C@@](C)(OC)[C@@H](O)[C@H](C)O2)[C@H](C)[C@@H](O[C@@H]2O[C@H](C)C[C@H](N(C)C)[C@H]2O)[C@](C)(O)C[C@@H](C)CN(C)[C@H](C)[C@@H](O)[C@]1(C)O [AZITHROMYCIN]", "Haemophilus influenzae", 4),
]

State measured MIC90 of the compound CC[C@H]1OC(=O)[C@H](C)[C@@H](O[C@H]2C[C@@](C)(OC)[C@@H](O)[C@H](C)O2)[C@H](C)[C@@H](O[C@@H]2O[C@H](C)C[C@H](N(C)C)[C@H]2O)[C@](C)(OC)C[C@@H](C)C(=O)[C@H](C)[C@@H](O)[C@]1(C)O [CLARITHROMYCIN] with Haemophilus influenzae.
16
